Data provenance: paper PMC8703412

Tested on: Mtb. 234/2005 (MDR-TB)
experiment: microbe, parasite or virus in culture
Assay type: cell-based, Mycobacterium tuberculosis
run.conditions: Mycobacterium tuberculosis, 336 h, read-out: MIC Mtb. 234/2005 14 d
observed.property: MIC (µM)
Note: unit µM is implicit; provide only the numeric part.

> print(dat)
                              record.smiles  test.result
1  C/C(=N\NC(=O)c1ccncc1)C(=O)Oc1ccc2ccccc2c1           16
2  C/C(=N\NC(=O)c1ccncc1)C(=O)Oc1cccc2ccccc12           16
3  C/C(=N\NC(=O)c1ccncc1)C(=O)OCCn1c([N+](=O)[O-])cnc1C           32
4  C/C(=N\NC(=O)c1ccncc1)C(=O)Oc1cc(Cl)ccc1Oc1ccc(Cl)cc1Cl           32
5  C/C(=N\NC(=O)c1ccncc1)C(=O)Oc1cc(C(C)C)ccc1C           16

Data point: COc1ccc(OC(=O)/C(C)=N/NC(=O)c2ccncc2)cc1 ; MIC = 16

Data point: C/C(=N\NC(=O)c1ccncc1)C(=O)Oc1ccccc1 ; MIC = 32

Data point: C/C(=N\NC(=O)c1ccncc1)C(=O)Oc1cccc2cccnc12 ; MIC = 8

Data point: C/C(=N\NC(=O)c1ccncc1)C(=O)Oc1ccc(Cl)cc1 ; MIC = 16

Data point: CC(=O)Nc1ccc(OC(=O)C(C)=NNC(=O)c2ccncc2)cc1 ; MIC = 32

Data point: C/C(=N\NC(=O)c1ccncc1)C(=O)Sc1ccccc1 ; MIC = 32

====

Test system: Mtb. Praha 4 (MDR-TB)
experiment: microbe, parasite or virus in culture
Type: cell-based, Mycobacterium tuberculosis
run.conditions: Mycobacterium tuberculosis, 336 h, read-out: MIC Mtb. Praha 4 14 d
Property: MIC; scope: individual compounds

Worked cases, answers included:
> print(dat)
                              record.smiles  observed.property  test.result
1  CC(=O)Nc1ccc(OC(=O)C(C)=NNC(=O)c2ccncc2)cc1                MIC        32 µM
2  C/C(=N\NC(=O)c1ccncc1)C(=O)Oc1cc(C(C)C)ccc1C                MIC         8 µM
3  C/C(=N\NC(=O)c1ccncc1)C(=O)OCCn1c([N+](=O)[O-])cnc1C                MIC        32 µM
4      C/C(=N\NC(=O)c1ccncc1)C(=O)Oc1ccccc1                MIC        16 µM
5  C/C(=N\NC(=O)c1ccncc1)C(=O)Oc1cccc2cccnc12                MIC         8 µM

Data point: C/C(=N\NC(=O)c1ccncc1)C(=O)Oc1cccc2ccccc12 ; MIC = 16 µM

Data point: C/C(=N\NC(=O)c1ccncc1)C(=O)Oc1cc(Cl)ccc1Oc1ccc(Cl)cc1Cl ; MIC = 32 µM

Data point: C/C(=N\NC(=O)c1ccncc1)C(=O)Sc1ccccc1 ; MIC = 32 µM

====

System: Mtb. 8666/2010 (MDR-TB)
experiment: microbe, parasite or virus in culture
Type: cell-based, Mycobacterium tuberculosis
run.conditions: Mycobacterium tuberculosis, 504 h, read-out: MIC Mtb. 8666/2010 21 d
Property: MIC; scope: individual compounds
Note: unit µM is implicit; provide only the numeric part.

Worked cases, answers included:
> print(dat)
                              record.smiles         target.or.system  unit.symbol  test.result
1  C/C(=N\NC(=O)c1ccncc1)C(=O)Oc1cc(C(C)C)ccc1C  Mtb. 8666/2010 (MDR-TB)           µM           16
2  C/C(=N\NC(=O)c1ccncc1)C(=O)Oc1cccc2cccnc12  Mtb. 8666/2010 (MDR-TB)           µM            8
3  C/C(=N\NC(=O)c1ccncc1)C(=O)Oc1cccc2ccccc12  Mtb. 8666/2010 (MDR-TB)           µM           16

Data point: C/C(=N\NC(=O)c1ccncc1)C(=O)Sc1ccccc1 ; MIC = 32

====

System: Mtb. 9449/2007 (MDR-TB)
experiment: microbe, parasite or virus in culture
Assay type: cell-based, Mycobacterium tuberculosis
run.conditions: Mycobacterium tuberculosis, 336 h, read-out: MIC Mtb. 9449/2007 14 d
observed.property: MIC

> print(dat)
                              record.smiles  test.result
1  COc1ccc(OC(=O)/C(C)=N/NC(=O)c2ccncc2)cc1        16 µM
2  C/C(=N\NC(=O)c1ccncc1)C(=O)Oc1cccc2cccnc12         8 µM
3  CC(=O)Nc1ccc(OC(=O)C(C)=NNC(=O)c2ccncc2)cc1        32 µM

Data point: C/C(=N\NC(=O)c1ccncc1)C(=O)OCCn1c([N+](=O)[O-])cnc1C ; MIC = 32 µM

Data point: C/C(=N\NC(=O)c1ccncc1)C(=O)Oc1ccc2ccccc2c1 ; MIC = 32 µM

Data point: C/C(=N\NC(=O)c1ccncc1)C(=O)Oc1ccccc1 ; MIC = 32 µM

Data point: C/C(=N\NC(=O)c1ccncc1)C(=O)Oc1cc(Cl)ccc1Oc1ccc(Cl)cc1Cl ; MIC = 32 µM

Data point: C/C(=N\NC(=O)c1ccncc1)C(=O)Oc1cc(C(C)C)ccc1C ; MIC = 16 µM

Data point: C/C(=N\NC(=O)c1ccncc1)C(=O)Oc1cccc2ccccc12 ; MIC = 32 µM

Data point: C/C(=N\NC(=O)c1ccncc1)C(=O)Sc1ccccc1 ; MIC = 64 µM

Data point: C/C(=N\NC(=O)c1ccncc1)C(=O)Oc1ccc(Cl)cc1 ; MIC = 16 µM

====

Test system: Mtb. 9449/2007 (MDR-TB)
experiment: microbe, parasite or virus in culture
Assay type: cell-based, Mycobacterium tuberculosis
run.conditions: Mycobacterium tuberculosis, 504 h, read-out: MIC Mtb. 9449/2007 21 d
Property: MIC; scope: individual compounds
Note: unit µM is implicit; provide only the numeric part.

Worked cases, answers included:
> print(dat)
                              record.smiles  observed.property  unit.symbol  test.result
1  C/C(=N\NC(=O)c1ccncc1)C(=O)Oc1cc(C(C)C)ccc1C                MIC           µM           32
2  C/C(=N\NC(=O)c1ccncc1)C(=O)OCCn1c([N+](=O)[O-])cnc1C                MIC           µM           32
3  C/C(=N\NC(=O)c1ccncc1)C(=O)Oc1cc(Cl)ccc1Oc1ccc(Cl)cc1Cl                MIC           µM           32

Test item C/C(=N\NC(=O)c1ccncc1)C(=O)Oc1cccc2ccccc12 ; Mtb. 9449/2007 (MDR-TB); reported MIC was 32

Test item CC(=O)Nc1ccc(OC(=O)C(C)=NNC(=O)c2ccncc2)cc1 ; Mtb. 9449/2007 (MDR-TB); reported MIC was 64

Test item C/C(=N\NC(=O)c1ccncc1)C(=O)Oc1ccccc1 ; Mtb. 9449/2007 (MDR-TB); reported MIC was 32

Test item C/C(=N\NC(=O)c1ccncc1)C(=O)Sc1ccccc1 ; Mtb. 9449/2007 (MDR-TB); reported MIC was 64

Test item C/C(=N\NC(=O)c1ccncc1)C(=O)Oc1ccc(Cl)cc1 ; Mtb. 9449/2007 (MDR-TB); reported MIC was 16

Test item C/C(=N\NC(=O)c1ccncc1)C(=O)Oc1cccc2cccnc12 ; Mtb. 9449/2007 (MDR-TB); reported MIC was 8

Test item COc1ccc(OC(=O)/C(C)=N/NC(=O)c2ccncc2)cc1 ; Mtb. 9449/2007 (MDR-TB); reported MIC was 16

Test item C/C(=N\NC(=O)c1ccncc1)C(=O)Oc1ccc2ccccc2c1 ; Mtb. 9449/2007 (MDR-TB); reported MIC was 32

====

Test system: Mtb. Praha 4 (MDR-TB)
experiment: microbe, parasite or virus in culture
Format: cell-based, Mycobacterium tuberculosis
run.conditions: Mycobacterium tuberculosis, 336 h, read-out: MIC Mtb. Praha 4 14 d
observed.property: MIC (µM)
Note: unit µM is implicit; provide only the numeric part.

> print(dat)
                              record.smiles       target.or.system  observed.property  unit.symbol  test.result
1  C/C(=N\NC(=O)c1ccncc1)C(=O)Oc1ccc2ccccc2c1  Mtb. Praha 4 (MDR-TB)                MIC           µM           32
2  C/C(=N\NC(=O)c1ccncc1)C(=O)Oc1ccc(Cl)cc1  Mtb. Praha 4 (MDR-TB)                MIC           µM           16

Data point: COc1ccc(OC(=O)/C(C)=N/NC(=O)c2ccncc2)cc1 ; MIC = 16
